B1: LINE1-full (parent)
chain: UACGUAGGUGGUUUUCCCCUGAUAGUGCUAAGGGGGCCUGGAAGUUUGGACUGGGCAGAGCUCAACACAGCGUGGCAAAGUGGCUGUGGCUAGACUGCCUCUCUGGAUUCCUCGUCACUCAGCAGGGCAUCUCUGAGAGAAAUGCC

# Variants of: B1
# experiment: self-cleavage, relative activity (ratio to wild type); higher = more cleavage; in vitro, sequencing; the parent is a self-cleaving ribozyme
Exercise: for every item that follows, state its recorded self-cleavage.
One number for each entry.

Below, each entry is followed by its recorded self-cleavage result.
C3G U81C : 0.75
U81C : 1.37

Hey, can you go through the list below and give me self-cleavage for every item?
1. A107G G125U
2. A79G A141G
3. U13A C71G
4. C19A U100C
5. C16A U96G

Response line:
1.96
1.35
0.2
0.9
0.08

Provide the reported self-cleavage of each entry below, same order.
1. A65U A92G
2. A57G U130C
3. A121G C145A
4. U23C A138U
5. C19A U52C
6. A43G A124U
7. A107U G127A
8. U47C A77U

Response line:
[0.03, 1.3, 1.6, 1.84, 0.51, 1.38, 0.93, 1.2]
